For each of the sequences below, state its shrunken log2 fold change.
Test system: Escherichia coli TOP10
Assay: shrunken log2 fold change of peptide-encoding DNA abundance (4.5 h post-induction vs induction); higher = less antimicrobial activity (less host growth inhibition)
Conditions: time post-induction: 4.5 h; library: site-saturation at positions 5, 18, 19, 20

INSERT INTO results (seqtext, targetundertest, endpointlabel, assayresult) VALUES
  ('RRIRIRPPRLPRPRPRPVHRPRP', 'Escherichia coli TOP10', 'shrunken log2 fold change', -0.194),
  ('RRIRKRPPRLPRPRPRPPRGPRP', 'Escherichia coli TOP10', 'shrunken log2 fold change', 1.13),
  ('RRIRFRPPRLPRPRPRPLTDPRP', 'Escherichia coli TOP10', 'shrunken log2 fold change', -0.143),
  ('RRIRPRPPRLPRPRPRPDCIPRP', 'Escherichia coli TOP10', 'shrunken log2 fold change', -0.391);

Return reported shrunken log2 fold change values for all items listed beneath this line.
1. RRIRRRPPRLPRPRPRPCHFPRP
2. RRIRDRPPRLPRPRPRPCLYPRP
3. RRIRLRPPRLPRPRPRPDRKPRP
4. RRIRNRPPRLPRPRPRPNWGPRP
5. RRIRDRPPRLPRPRPRPAYPPRP
6. RRIRKRPPRLPRPRPRPWQVPRP
7. RRIRGRPPRLPRPRPRPQLQPRP
8. RRIRQRPPRLPRPRPRPWYEPRP

**A:**
-0.181
0.0504
-0.0365
-0.0231
0.147
-0.0062
0.577
0.0185

Count: 3. Required value per item: shrunken log2 fold change.
1. RRIRFRPPRLPRPRPRPLYFPRP
2. RRIRCRPPRLPRPRPRPAPEPRP
3. RRIRNRPPRLPRPRPRPQRTPRP

**A:**
1: -0.72; 2: 0.766; 3: -0.248

====

Would you kindly list shrunken log2 fold change for each of these sequences?
Tested on: Escherichia coli TOP10
Experiment: shrunken log2 fold change of peptide-encoding DNA abundance (4.5 h post-induction vs induction); higher = less antimicrobial activity (less host growth inhibition)
Details: time post-induction: 4.5 h; library: site-saturation at positions 5, 18, 19, 20
Numbers only.

INSERT INTO assay_data (seqtext, targetundertest, endpointlabel, assayresult) VALUES
  ('RRIRARPPRLPRPRPRPHGQPRP', 'Escherichia coli TOP10', 'shrunken log2 fold change', 0.0639),
  ('RRIRRRPPRLPRPRPRPCRYPRP', 'Escherichia coli TOP10', 'shrunken log2 fold change', -0.0616),
  ('RRIRTRPPRLPRPRPRPRSWPRP', 'Escherichia coli TOP10', 'shrunken log2 fold change', 0.532),
  ('RRIRDRPPRLPRPRPRPDYYPRP', 'Escherichia coli TOP10', 'shrunken log2 fold change', 0.00235),
  ('RRIRTRPPRLPRPRPRPINDPRP', 'Escherichia coli TOP10', 'shrunken log2 fold change', -0.293),
  ('RRIRMRPPRLPRPRPRPWASPRP', 'Escherichia coli TOP10', 'shrunken log2 fold change', 0.0142),
  ('RRIRHRPPRLPRPRPRPMRDPRP', 'Escherichia coli TOP10', 'shrunken log2 fold change', 0.684),
  ('RRIRKRPPRLPRPRPRPRLAPRP', 'Escherichia coli TOP10', 'shrunken log2 fold change', 0.772),
  ('RRIRDRPPRLPRPRPRPTLMPRP', 'Escherichia coli TOP10', 'shrunken log2 fold change', 0.114),
  ('RRIRSRPPRLPRPRPRPRKWPRP', 'Escherichia coli TOP10', 'shrunken log2 fold change', 0.139);

Quick one: give me shrunken log2 fold change for each item below, same order please.
1. RRIRYRPPRLPRPRPRPKDTPRP
2. RRIRTRPPRLPRPRPRPNEFPRP
3. RRIRERPPRLPRPRPRPELYPRP
4. RRIRMRPPRLPRPRPRPRHCPRP
5. RRIRHRPPRLPRPRPRPGGYPRP

**A:**
[-0.392, 0.0177, -0.0287, 0.28, -0.258]

====

Test system: Escherichia coli TOP10
Assay: shrunken log2 fold change of peptide-encoding DNA abundance (4.5 h post-induction vs induction); higher = less antimicrobial activity (less host growth inhibition)
Conditions: time post-induction: 4.5 h; library: site-saturation at positions 5, 18, 19, 20
endpointLabel: shrunken log2 fold change
Numbers only.

Study these solved cases before continuing.
INSERT INTO measurements (seqtext, assayresult) VALUES
  ('RRIRSRPPRLPRPRPRPNDYPRP', -1.18),
  ('RRIRLRPPRLPRPRPRPPHQPRP', 0.168),
  ('RRIRTRPPRLPRPRPRPVIMPRP', -0.181),
  ('RRIRNRPPRLPRPRPRPKTVPRP', 0.0807),
  ('RRIRYRPPRLPRPRPRPCERPRP', 0.0112);

// each sequence listed below needs its shrunken log2 fold change
1. RRIRSRPPRLPRPRPRPKKEPRP
2. RRIRRRPPRLPRPRPRPYTKPRP
3. RRIRWRPPRLPRPRPRPKECPRP
4. RRIRNRPPRLPRPRPRPEVAPRP
5. RRIRKRPPRLPRPRPRPKMFPRP
6. RRIRRRPPRLPRPRPRPPDEPRP

**A:**
1. 0.00678
2. -0.284
3. 0.236
4. 0.418
5. -0.146
6. 0.726

Hi there! I need shrunken log2 fold change for each item below, if you can.
1. RRIRSRPPRLPRPRPRPQYQPRP
2. RRIRARPPRLPRPRPRPYCMPRP
3. RRIRIRPPRLPRPRPRPKSSPRP
4. RRIRNRPPRLPRPRPRPIRAPRP

**A:**
[-0.136, -0.495, -0.143, -0.0265]

====

Would you mind telling me the reported shrunken log2 fold change of each entry?
System: Escherichia coli TOP10
Assay: shrunken log2 fold change of peptide-encoding DNA abundance (4.5 h post-induction vs induction); higher = less antimicrobial activity (less host growth inhibition)
Conditions: time post-induction: 4.5 h; library: site-saturation at positions 5, 18, 19, 20
Give bare numbers.

Some sequences with recorded shrunken log2 fold change:
INSERT INTO measurements (seqtext, assayresult) VALUES
  ('RRIRRRPPRLPRPRPRPLYYPRP', -0.259),
  ('RRIRSRPPRLPRPRPRPTIRPRP', 0.0218),
  ('RRIRQRPPRLPRPRPRPAMHPRP', -0.125),
  ('RRIRYRPPRLPRPRPRPRRRPRP', -0.0051),
  ('RRIRERPPRLPRPRPRPCLVPRP', 0.0202);

For each of the sequences below, note its shrunken log2 fold change.
1. RRIRPRPPRLPRPRPRPWSEPRP
2. RRIRYRPPRLPRPRPRPPIEPRP
3. RRIRRRPPRLPRPRPRPWQCPRP
4. RRIRIRPPRLPRPRPRPGCQPRP
5. RRIRFRPPRLPRPRPRPNTHPRP
6. RRIRPRPPRLPRPRPRPFLAPRP
7. RRIRSRPPRLPRPRPRPYPPPRP

**A:**
1: -0.0275; 2: -0.154; 3: -0.0743; 4: -0.0196; 5: -0.579; 6: 0.0316; 7: -0.377

Look up shrunken log2 fold change for the entries below, preserving their order.
1. RRIRGRPPRLPRPRPRPKEPPRP
2. RRIRWRPPRLPRPRPRPLFDPRP
3. RRIRRRPPRLPRPRPRPLQHPRP

**A:**
0.875
0.0264
0.387

====

I'd appreciate it if you could supply shrunken log2 fold change values for the items below.
Test system: Escherichia coli TOP10;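 also: peptides expressed intracellularly from a pBAD plasmid library in pooled LB shake-flask culture, induced with 0.3% L-arabinose, DNA abundance read by NGS, three biological replicates, DESeq2 with apeglm shrinkage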
Assay: shrunken log2 fold change of peptide-encoding DNA abundance (4.5 h post-induction vs induction); higher = less antimicrobial activity (less host growth inhibition)
Conditions: time post-induction: 4.5 h; library: site-saturation at positions 5, 18, 19, 20
Numbers only.

Here are 2 sequences together with their reported answers.
INSERT INTO measurements (seqtext, endpointlabel, assayresult) VALUES
  ('RRIRCRPPRLPRPRPRPPRLPRP', 'shrunken log2 fold change', 0.873),
  ('RRIRNRPPRLPRPRPRPFVDPRP', 'shrunken log2 fold change', -0.725);

Give shrunken log2 fold change for each listed item.
1. RRIRHRPPRLPRPRPRPLVRPRP
2. RRIRQRPPRLPRPRPRPFSRPRP
3. RRIRSRPPRLPRPRPRPDTDPRP
4. RRIRNRPPRLPRPRPRPMQYPRP
5. RRIRSRPPRLPRPRPRPCNWPRP

**A:**
[-0.103, 0.00616, 0.0794, -0.267, -0.128]

List shrunken log2 fold change for every entry below, keeping the order given.
1. RRIRFRPPRLPRPRPRPDGLPRP
2. RRIRQRPPRLPRPRPRPTVTPRP

**A:**
0.00785
-0.47

Please go through the list and note shrunken log2 fold change for each sequence.
1. RRIRPRPPRLPRPRPRPKRCPRP
2. RRIRVRPPRLPRPRPRPAFYPRP
3. RRIRWRPPRLPRPRPRPSECPRP

**A:**
1: -0.0846; 2: -0.135; 3: 0.0183
